Details: basic group
Give 1 when the value for pKa is at least 5. Give -1 when it is less.

Some solved cases for reference:
Exercise: Could you please find out whether `C[Si](C)(CNC1CCCCC1)O[Si](C)(C)CNC1CCCCC1` has pKa that meets 5 or exceeds it?
Solution: 1

Exercise: Does the reported pKa for `NCC[n+]1ccc2c([N+](=O)[O-])cccc2c1` fall at or above the 5 mark?
Solution: 1

Exercise: Textbook exercise: given the entry `NNC(=O)C[NH3+]` , state whether its pKa is greater than or equal to 5.
Solution: -1

Exercise: Answer whether pKa of `N[C@H]1CCc2ccccc21` is greater than or equal to 5.
Solution: 1

Exercise: Can `OCCCCCc1ccccn1` be said to have pKa at or above 5?
Solution: 1

Others:
Exercise: # check: pKa of `Fc1cccc2[nH]cnc12` is greater than or equal to 5
Solution: -1

Exercise: Is pKa for `c1cc2c(nn1)CCCC2` at or above 5?
Solution: -1

Exercise: Item Oc1cccc(C2NCCS2)c1 (stereo unspecified) with pKa of 5 or above?
Solution: 1

Exercise: Item `CC(C)S(=O)(=O)n1c(N)nc2ccc(/C(=C/C(N)=O)c3cccc(F)c3)cc21` with pKa of 5 or above?
Solution: -1

Exercise: Kindly determine if pKa recorded for `Cc1ncnc2nc[nH]c12` is above or exactly 5.
Solution: -1

Exercise: Check if pKa >= 5 (inclusive). Item: `CC(=O)Nc1cccc2nc3ccccc3cc12`
Solution: -1

Exercise: API: above_or_equal(metric=pKa, cutoff=5) for item `CC(=O)/C(CN1CCCCC1)=N\[O-]`
Solution: 1

Exercise: Reported pKa reaches at least 5 for `CC[NH+](CC)Cc1cn2nc(-c3ccccc3)cc(C)c2n1` ?
Solution: -1

Exercise: Evaluate `Nc1cc[nH]n1` : pKa at minimum 5?
Solution: -1

Exercise: Exam item: decide whether the reported pKa for COc1ccc2nccc(C(O)C3CCCC[NH2+]3)c2c1 (stereo unspecified) is at least 5.
Solution: -1

Exercise: Check this compound for pKa at or above 5: `CN(C)c1ncnc2nc[nH]c12`
Solution: -1

Exercise: Textbook exercise: given the entry `CCCNC(=O)[C@H](Cc1c[nH]cn1)NC(=O)c1cccc(CNCCN)n1` , state whether its pKa is greater than or equal to 5.
Solution: 1

Exercise: Could you verify whether the entry `NCCCCc1ccccc1` shows pKa of no less than 5?
Solution: 1

Exercise: State whether the measured pKa reaches 5, counting equality as reaching it, for `C1CCN(C2CC[NH2+]CC2)CC1`
Solution: 1

Exercise: Would you say `Cc1cc(-c2cc(C)n(C)[nH+]2)nn1C` shows pKa at minimum 5?
Solution: -1

Exercise: Given the entry `NCc1ccccc1[N+](=O)[O-]` , answer whether its pKa meets or surpasses 5.
Solution: 1

Exercise: Determine whether measured pKa meets or exceeds 5 for c1cc(C2CCCN2)nc(C2CCCN2)c1 (stereo unspecified)
Solution: 1

Exercise: I'd appreciate it if you could say whether `Cc1cc2cccc(C)c2nc1C` has pKa at least equal to 5.
Solution: -1

Exercise: Reported pKa at or above 5? `CNCCO`
Solution: 1

Exercise: Textbook exercise: given the entry `O/C(=C\c1ccccn1)c1ccccc1` , state whether its pKa is greater than or equal to 5.
Solution: -1

Exercise: Quick check: does `CCN(CC)CCCCC#N` have pKa greater than or equal to 5?
Solution: 1

Exercise: Decide: pKa of `N=C(N)N(c1ccccc1)c1ccccc1` >= 5?
Solution: 1

Exercise: Can `CN(C)c1ccc(C#N)cc1` be said to have pKa at or above 5?
Solution: -1

Exercise: API: above_or_equal(metric=pKa, cutoff=5) for item `NCCCCCO`
Solution: 1
